test system: T-Rex 293 cell line SC3 cells lacking increased expression of androgen receptor protein; test: Cellular growth inhibition, T-Rex 293 SC3 cells without doxycycline, CellTiter-Glo; format: cell-based; conditions: 72 h, T-Rex 293 SC3 cells not exposed to doxycycline, CellTiter-Glo 2.0
ENDPOINT LABEL: GI50

Cc1sc2c(c1C)C(c1ccc(CCCOC3CCN(c4ncc(C(=O)N[C@H]5C(C)(C)[C@H](Oc6ccc(C#N)c(Cl)c6)C5(C)C)cn4)CC3)cc1)=N[C@H](Cc1cnccn1)c1nnc(C)n1-2	< 0.5 µM
Cc1sc2c(c1C)C(c1ccc(OC3CCN(C4CCN(c5ncc(C(=O)N[C@H]6C(C)(C)[C@H](Oc7ccc(C#N)c(Cl)c7)C6(C)C)cn5)CC4)CC3)cc1)=N[C@@H](C)c1nnc(C)n1-2	1.5 to 3 µM
Cc1sc2c(c1C)C(c1ccc(C3CC(N4CCN(c5ccc(C(=O)N[C@H]6C(C)(C)[C@H](Oc7ccc(C#N)c(Cl)c7)C6(C)C)cn5)CC4)C3)cc1)=N[C@@H](C)c1nnc(C)n1-2 (stereo partly drawn)	< 0.5 µM
Cc1sc2c(c1C)C(c1ccc(CCCOC3CCN(c4ncc(C(=O)N[C@H]5C(C)(C)[C@H](Oc6ccc(C#N)c(Cl)c6)C5(C)C)cn4)CC3)cc1)=N[C@@H](CC(=O)NC(C)C)c1nnc(C)n1-2	> 3 µM
CCNC(=O)C[C@@H]1N=C(c2ccc(CCCCCCCOC3CCN(c4ncc(C(=O)N[C@H]5C(C)(C)[C@H](Oc6ccc(C#N)c(Cl)c6)C5(C)C)cn4)CC3)cc2)c2c(sc(C)c2C)-n2c(C)nnc21	> 3 µM
Cc1sc2c(c1C)C(c1ccc(Cl)cc1)=N[C@@H](CC(=O)NCCOCCOCCOCC1CN(c3ncc(C(=O)N[C@H]4C(C)(C)[C@H](Oc5ccc(C#N)c(Cl)c5)C4(C)C)cn3)C1)c1nnc(C)n1-2	1.5 to 3 µM

# GI50 of Cc1sc2c(c1C)C(c1ccc(CC(=O)NCCc3ncc(C(=O)N[C@H]4C(C)(C)[C@H](Oc5ccc(C#N)c(Cl)c5)C4(C)C)cn3)cc1)=N[C@@H](Cc1ncco1)c1nnc(C)n1-2 = > 3 µM

For reference, reported GI50 for Cc1sc2c(c1C)C(c1ccc(N[C@H]3CCCCN(c4ncc(C(=O)N[C@H]5C(C)(C)[C@H](Oc6ccc(C#N)c(Cl)c6)C5(C)C)cn4)C3)cc1)=NC(Cc1ncco1)c1nnc(C)n1-2 (stereo partly drawn) stands at > 3 µM

Note to self: GI50 recorded for Cc1sc2c(c1C)C(c1ccc(C[C@@H]3CC[C@]4(C3)CN(c3ncc(C(=O)N[C@H]5C(C)(C)[C@H](Oc6ccc(C#N)c(Cl)c6)C5(C)C)cn3)CCO4)cc1)=N[C@H](Cc1ncco1)c1nnc(C)n1-2 was < 0.5 µM

// GI50 value for Cc1sc2c(c1C)C(c1ccc(NC3CCCN(c4ncc(C(=O)N[C@H]5C(C)(C)[C@H](Oc6ccc(C#N)c(Cl)c6)C5(C)C)cn4)CC3)cc1)=NC(Cc1ncco1)c1nnc(C)n1-2 (stereo partly drawn) : 0.5 to 1.5 µM

Measured GI50, Cc1sc2c(c1C)C(c1ccc(CC[C@H]3C[C@]4(CCCN(c5ncc(C(=O)N[C@H]6C(C)(C)[C@H](Oc7ccc(C#N)c(Cl)c7)C6(C)C)cn5)C4)C3)cc1)=N[C@@H](C)c1nnc(C)n1-2 : > 3 µM

Measured GI50, Cc1sc2c(c1C)C(c1ccc(OC3CC4(CCN(c5ncc(C(=O)N[C@H]6C(C)(C)[C@H](Oc7ccc(C#N)c(Cl)c7)C6(C)C)cn5)CC4)C3)cc1)=N[C@@H](CC(C)(C)O)c1nnc(C)n1-2 : > 3 µM

----------
molecular target: BRD4-BD1 (Homo sapiens, UniProt O60885); test: bromoKdELECT assay for binding affinity to BRD4-BD1; details: Table 6
pKd: −log10 of the molar value.
Parameter: pKd. Scope: all listed entries.

Cc1sc2c(c1C)C(c1ccc(Cl)cc1)=N[C@@H](CC(=O)NCCOCCOCCOCCOC1CCN(c3ncc(C(=O)N[C@H]4C(C)(C)[C@H](Oc5ccc(C#N)c(Cl)c5)C4(C)C)cn3)CC1)c1nnc(C)n1-2	5.60 to 6.30
Cc1sc2c(c1C)C(c1ccc(Cl)cc1)=N[C@@H](CC(=O)NCCOCCOCCOCCOCCN(C)c1ncc(C(=O)N[C@H]3C(C)(C)[C@H](Oc4ccc(C#N)c(Cl)c4)C3(C)C)cn1)c1nnc(C)n1-2	6.30 to 7.30

Now turn to the next molecule.
# pKd (molecule: Cc1sc2c(c1C)C(c1ccc(CCCOC3CCN(c4ncc(C(=O)N[C@H]5C(C)(C)[C@H](Oc6ccc(C#N)c(Cl)c6)C5(C)C)cn4)CC3)cc1)=N[C@@H](CC(=O)NC(C)C)c1nnc(C)n1-2 ) is < 5.60

----------
Measured GI50 by item
test system: T-Rex 293 cell line SC3 cells lacking increased expression of androgen receptor protein; test: Cellular growth inhibition, T-Rex 293 SC3 cells without doxycycline, CellTiter-Glo; type: cell-based; details: 72 h, T-Rex 293 SC3 cells not exposed to doxycycline, CellTiter-Glo 2.0

Cc1sc2c(c1C)C(c1ccc(NCCC3CCCN(c4ncc(C(=O)N[C@H]5C(C)(C)[C@H](Oc6ccc(C#N)c(Cl)c6)C5(C)C)cn4)C3)cc1)=N[C@@H](Cc1ncco1)c1nnc(C)n1-2 (stereo partly drawn)	< 500 nM
Cc1sc2c(c1C)C(c1ccc(N(C)CC(=O)NCc3ncc(C(=O)N[C@H]4C(C)(C)[C@H](Oc5ccc(C#N)c(Cl)c5)C4(C)C)cn3)cc1)=N[C@@H](Cc1ncco1)c1nnc(C)n1-2	> 3000 nM
Cc1sc2c(c1C)C(c1ccc(-c3ccc(OC4CCN(c5ncc(C(=O)N[C@H]6C(C)(C)[C@H](Oc7ccc(C#N)c(Cl)c7)C6(C)C)cn5)CC4)s3)cc1)=N[C@@H](Cc1ncco1)c1nnc(C)n1-2	> 3000 nM
Cc1sc2c(c1C)C(c1ccc(C[C@@H]3CC[C@]4(CCCN(c5ncc(C(=O)N[C@H]6C(C)(C)[C@H](Oc7ccc(C#N)c(Cl)c7)C6(C)C)cn5)C4)C3)cc1)=N[C@@H](Cc1ncco1)c1nnc(C)n1-2	> 3000 nM
Cc1sc2c(c1C)C(c1ccc(OC3CC4(CCN(c5ncc(C(=O)N[C@H]6C(C)(C)[C@H](Oc7ccc(C#N)c(Cl)c7)C6(C)C)cn5)CC4)C3)cc1)=N[C@H](Cc1nnn(C)n1)c1nnc(C)n1-2	> 3000 nM

Sample Cc1sc2c(c1C)C(c1ccc(CN3CC4(C3)CN(c3ncc(C(=O)N[C@H]5C(C)(C)[C@H](Oc6ccc(C#N)c(Cl)c6)C5(C)C)cn3)CCO4)cc1)=NC(Cc1ncco1)c1nnc(C)n1-2 (stereo partly drawn) ; GI50 observed: < 500 nM

Short answer for CCNC(=O)C[C@@H]1N=C(c2ccc(N(C)CC3CN(c4ncc(C(=O)N[C@H]5C(C)(C)[C@H](Oc6ccc(C#N)c(Cl)c6)C5(C)C)cn4)C3)cc2)c2c(sc(C)c2C)-n2c(C)nnc21 : GI50 was 500 to 1500 nM

----------
Listing of recorded GI50 by entry.
tested on: T-Rex 293 cell line SC3 cells lacking increased expression of androgen receptor protein; assay: Cellular growth inhibition, T-Rex 293 SC3 cells without doxycycline, CellTiter-Glo; type: cell-based; settings: 72 h, T-Rex 293 SC3 cells not exposed to doxycycline, CellTiter-Glo 2.0

Solved entries (count: 8):
Cc1sc2c(c1C)C(c1ccc(CCN3CC[C@@]4(C3)CN(c3ncc(C(=O)N[C@H]5C(C)(C)[C@H](Oc6ccc(C#N)c(Cl)c6)C5(C)C)cn3)CC(F)(F)C4)cc1)=N[C@@H](Cc1ncco1)c1nnc(C)n1-2	> 3000 nM
Cc1sc2c(c1C)C(c1ccc(CC3CC4(CCN(c5ccc(C(=O)N[C@H]6C(C)(C)[C@H](Oc7ccc(C#N)c(Cl)c7)C6(C)C)nc5)CC4)C3)cc1)=N[C@@H](C)c1nnc(C)n1-2	> 3000 nM
Cc1sc2c(c1C)C(c1ccc(-c3scnc3OC3CCN(c4ncc(C(=O)N[C@H]5C(C)(C)[C@H](Oc6ccc(C#N)c(Cl)c6)C5(C)C)cn4)CC3)cc1)=N[C@@H](Cc1ncco1)c1nnc(C)n1-2	> 3000 nM
Cc1sc2c(c1C)C(c1ccc(Cl)cc1)=N[C@@H](CC(=O)NCCCCCCCCOC1CCN(c3ncc(C(=O)N[C@H]4C(C)(C)[C@H](Oc5ccc(C#N)c(Cl)c5)C4(C)C)cn3)CC1)c1nnc(C)n1-2	> 3000 nM
Cc1sc2c(c1C)C(c1ccc(O[C@@H]3CC[C@]4(CCCN(c5ncc(C(=O)N[C@H]6C(C)(C)[C@H](Oc7ccc(C#N)c(Cl)c7)C6(C)C)cn5)C4)C3)cc1)=N[C@@H](Cc1ncco1)c1nnc(C)n1-2	> 3000 nM
Cc1sc2c(c1C)C(c1ccc(OC3CC4(CCN(c5ncc(C(=O)N[C@H]6C(C)(C)[C@H](Oc7ccc(C#N)c(Cl)c7)C6(C)C)cn5)CC4)C3)cc1)=N[C@@H](Cc1ncon1)c1nnc(C)n1-2	> 3000 nM
Cc1sc2c(c1C)C(c1ccc(O[C@H]3CC[C@]4(CCN(c5ncc(C(=O)N[C@H]6C(C)(C)[C@H](Oc7ccc(C#N)c(Cl)c7)C6(C)C)cn5)C4)CC3)cc1)=N[C@@H](Cc1ncco1)c1nnc(C)n1-2	< 500 nM
Cc1sc2c(c1C)C(c1ccc(C3CCC4(CC3)CCN(c3ncc(C(=O)N[C@H]5C(C)(C)[C@H](Oc6ccc(C#N)c(Cl)c6)C5(C)C)cn3)C4)cc1)=N[C@@H](Cc1ncco1)c1nnc(C)n1-2	< 500 nM

Field: next molecule
Item: Cc1sc2c(c1C)C(c1ccc(C(C)(C)N3CC4(CCN(c5ncc(C(=O)N[C@H]6C(C)(C)[C@H](Oc7ccc(C#N)c(Cl)c7)C6(C)C)cn5)CC4)C3)cc1)=N[C@@H](Cc1ncco1)c1nnc(C)n1-2 | GI50: 1500 to 3000 nM

Provenance of the data: patent US20260062422A1
